tested_system: IL-1RtI (Homo sapiens, UniProt P14778)
Construct: made in house; host or cells: recombinant host cells (one form soluble from baculovirus transformed host cells; another PIG-tailed and cleaved from the cell surface)
assay_explanation: Inhibition of 125I-IL-1α binding to IL-1RtI (Example 3)
experimental_setup: inhibition of 125I-IL-1α binding to IL-1RtI; soluble peptide unless marked *
Where a SMILES comes first, the peptide text is derived from it. [ ]: non-standard residue; d: D form. Aze = O=C(O)[C@@H]1CCN1; Sar = CNCC(=O)O
List of IC50 values.
measured_property: IC50

[[record]]
compound = "C[C@H](NC(=O)[C@H](Cc1ccc(O)cc1)NC(=O)CNC(=O)[C@@H]1CCCN1C(=O)[C@@H](NC(=O)[C@H](Cc1c[nH]c2ccccc12)NC(=O)[C@H](CCC(=O)O)NC(=O)[C@@H](N)Cc1ccccc1)[C@@H](C)O)C(=O)N[C@@H](CCC(N)=O)C(=O)N1CC[C@H]1C(=O)N[C@@H](Cc1ccc(O)cc1)C(N)=O [FEWTPGYAQJY--NH2] (H-FEWTPGYAQ[Aze]Y-NH2)"
reported_measurement = "≤ 100000 nM"

[[record]]
compound = "C[C@@H](O)[C@H](NC(=O)[C@H](Cc1c[nH]c2ccccc12)NC(=O)[C@H](CCC(=O)O)NC(=O)[C@@H](N)Cc1ccccc1)C(=O)N(C)CC(=O)NCC(=O)N[C@@H](Cc1ccc(O)cc1)C(=O)N[C@@H](Cc1c[nH]c2ccccc12)C(=O)N[C@@H](CCC(N)=O)C(=O)N1CC[C@H]1C(=O)N[C@@H](Cc1ccc(O)cc1)C(N)=O [FEWTSarGYWQJY--NH2] (H-FEWT[Sar]GYWQ[Aze]Y-NH2)"
reported_measurement = "≤ 500 nM"

[[record]]
compound = "C[C@@H](O)[C@H](NC(=O)[C@H](Cc1c[nH]c2ccccc12)NC(=O)[C@H](CCC(=O)O)NC(=O)[C@@H](N)Cc1ccccc1)C(=O)N1CC[C@H]1C(=O)NCC(=O)N[C@@H](Cc1ccc(O)cc1)C(=O)N[C@@H](Cc1c[nH]c2ccccc12)C(=O)N[C@@H](CCC(N)=O)C(=O)N1CC[C@H]1C(=O)N[C@@H](Cc1ccc(O)cc1)C(N)=O [FEWTJGYWQJY--NH2] (H-FEWT[Aze]GYWQ[Aze]Y-NH2)"
reported_measurement = "≤ 500 nM"


###

tested_system: IL-1 induced E-selectin in HUVEC cells (Homo sapiens)
Sequence (P14778 18-569): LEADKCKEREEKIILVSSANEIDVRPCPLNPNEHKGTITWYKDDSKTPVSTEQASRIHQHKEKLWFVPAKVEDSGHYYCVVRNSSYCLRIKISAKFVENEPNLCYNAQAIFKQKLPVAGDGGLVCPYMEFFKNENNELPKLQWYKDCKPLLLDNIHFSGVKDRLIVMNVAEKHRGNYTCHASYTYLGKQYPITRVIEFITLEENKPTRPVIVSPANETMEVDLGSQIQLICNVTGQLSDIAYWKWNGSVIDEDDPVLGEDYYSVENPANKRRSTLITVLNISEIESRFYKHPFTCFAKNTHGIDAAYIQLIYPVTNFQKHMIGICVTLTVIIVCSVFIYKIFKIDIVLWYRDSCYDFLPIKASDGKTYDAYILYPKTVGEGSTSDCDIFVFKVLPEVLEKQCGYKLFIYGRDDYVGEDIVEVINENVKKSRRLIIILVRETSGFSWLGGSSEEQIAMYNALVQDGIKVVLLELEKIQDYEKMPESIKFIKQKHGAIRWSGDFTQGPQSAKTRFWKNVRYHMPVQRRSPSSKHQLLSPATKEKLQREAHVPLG
assay_explanation: Peptide Effects on IL-1 Induced E-Selectin (HUVEC Cells)
Assay type: cell-based
experimental_setup: 120 pM IL-1α, read-out: IC50 (concentration required to inhibit 50% of IL-1 induced E-selectin expression)
pIC50: −log10 of the molar value. Where no end group is shown, it is not given here.
measured_property: pIC50

[[record]]
macromolecule_sequence = "TANVSSFEWTPGYWQPYALPL"
tested_system = "IL-1 induced E-selectin in HUVEC cells (Homo sapiens)"
measured_property = "pIC50"
reported_measurement = "≥ 6.30"


###

tested_system: IL-1RtI (Homo sapiens)
Construct: made in house; host or cells: recombinant host cells (one form soluble from baculovirus transformed host cells; another PIG-tailed and cleaved from the cell surface)
assay_explanation: Inhibition of 125I-IL-1α binding to IL-1RtI (Example 3)
experimental_setup: inhibition of 125I-IL-1α binding to IL-1RtI; soluble peptide unless marked *
Where no end group is shown, it is not given here.
IC50 reference
measured_property: IC50

[[record]]
macromolecule_sequence = "NMVYWQPYSIQT [Peptide 3H7, NMVYWQPYSIQT]"
reported_measurement = "≤ 100 µM"

[[record]]
macromolecule_sequence = "GVVWYQPYALPL [GVVWYQ PYALPL]"
reported_measurement = "> 100 µM"

[[record]]
macromolecule_sequence = "SWTDYGYWQPYALPISGL [SWTDYG YWQPYA LPISGL]"
reported_measurement = "≤ 0.5 µM"

[[record]]
macromolecule_sequence = "RWWQPYATPL [RWWQPYATPL]"
reported_measurement = "≤ 100 µM"

[[record]]
macromolecule_sequence = "TANVSSFEWTPGYWQPYALPL"
reported_measurement = "≤ 0.5 µM"

[[record]]
macromolecule_sequence = "RSLYWQPYALPL [RSLYWQ PYALPL]"
reported_measurement = "≤ 100 µM"

[[record]]
macromolecule_sequence = "VIEWWQPYALPL [VIEWWQ PYALPL]"
reported_measurement = "≤ 100 µM"


Numbers sourced from patent US5861476A.
